- target: recombinant mTOR (FLAG-tagged, amino acid residues 1362 to 2549) (Homo sapiens, UniProt P42345)
- test.protocol: Alternative Enzyme Assay: AlphaScreen, inhibition of phosphorylation by recombinant mTOR
- Type: biochemical
- condition.details: Alternative Enzyme Assay, single values; read-out: IC50
recorded.metric: IC50 (nM)
Answer in nM, number only, no unit symbol.

IN: Tell me IC50 reported for C[C@@H]1CN(c2nc(N3CCOCC3)c3ccc(-c4ccsc4)nc3n2)C[C@H](C)O1 [Comparative Example 1k, reference compound]
OUT: 225

---

- target: mTOR (Homo sapiens, UniProt P42345)
- Construct: mTOR protein was isolated from HeLa cell cytoplasmic extract by immunoprecipitation; endogenous in cells; host or cells: HeLa cell cytoplasmic extract (immunoprecipitate)
- test.protocol: Biological Assay: mTOR enzyme activity, mTOR immunoprecipitated from HeLa cell cytoplasmic extract, recombinant PHAS-1 as substrate
- Assay type: biochemical
- condition.details: Biological Assay, upper bounds; read-out: IC50 values against mTOR
pIC50: −log10 of the molar value.
recorded.metric: pIC50

IN: Tell me pIC50 reported for COc1ccc(-c2ccc3c(N4CCOCC4)nc(N4CCCC[C@@H]4C)nc3n2)cc1
OUT: > 6.00

IN: Tell me pIC50 reported for C[C@@H]1CN(c2nc(N3CCOCC3)c3ccc(-c4cccc(N5CCOCC5)c4)nc3n2)C[C@H](C)O1
OUT: > 6.00

IN: Tell me pIC50 reported for C[C@@H]1CN(c2nc(N3CCOCC3)c3ccc(Nc4ccncc4)nc3n2)C[C@H](C)O1
OUT: > 7.00

IN: Tell me pIC50 reported for CC(=O)c1ccc(-c2ccc3c(N4CCOCC4)nc(N4C[C@@H](C)O[C@@H](C)C4)nc3n2)s1
OUT: > 6.00

IN: Tell me pIC50 reported for COc1ccc(-c2ccc3c(N4CCOCC4)nc(N4C[C@@H](C)O[C@@H](C)C4)nc3n2)cc1CNc1cc[nH]n1
OUT: > 7.00

IN: Tell me pIC50 reported for Cc1ccc(-n2nc(C)cc2Nc2ccc3c(N4CCOCC4)nc(N4C[C@@H](C)O[C@@H](C)C4)nc3n2)cc1
OUT: > 5.00

IN: Tell me pIC50 reported for COc1ccc(CCNCc2cc(-c3ccc4c(N5CCOCC5)nc(N5C[C@@H](C)O[C@@H](C)C5)nc4n3)ccc2OC)cc1
OUT: > 7.00

IN: Tell me pIC50 reported for C[C@@H]1CN(c2nc(N3CCOCC3)c3ccc(-c4cccc5cccnc45)nc3n2)C[C@H](C)O1
OUT: > 5.00

IN: Tell me pIC50 reported for COc1ccc(-c2ccc3c(N4CCOCC4)nc(N4C[C@@H](C)O[C@@H](C)C4)nc3n2)cc1CNCc1cccc(OC)c1OC
OUT: > 5.00

IN: Tell me pIC50 reported for C[C@@H]1CN(c2nc(N3CCOCC3)c3ccc(NC4CCCCC4)nc3n2)C[C@H](C)O1
OUT: > 6.00

IN: Tell me pIC50 reported for COC[C@H](Cc1ccccc1)NCc1cc(-c2ccc3c(N4CCOCC4)nc(N4C[C@@H](C)O[C@@H](C)C4)nc3n2)ccc1OC
OUT: > 7.00

IN: Tell me pIC50 reported for CC1CCC(Nc2ccc3c(N4CCOCC4)nc(N4C[C@@H](C)O[C@@H](C)C4)nc3n2)CC1 (stereo partly shown)
OUT: > 5.00

IN: Tell me pIC50 reported for C[C@@H]1CN(c2nc(N3CCOCC3)c3ccc(-c4ccc5c(c4)OCO5)nc3n2)C[C@H](C)O1
OUT: > 5.00

IN: Tell me pIC50 reported for C[C@@H]1CN(c2nc(N3CCOCC3)c3ccc(NC4CCCC4)nc3n2)C[C@H](C)O1
OUT: > 5.00

IN: Tell me pIC50 reported for CCOC(=O)C1CCCCC1NCc1cc(-c2ccc3c(N4CCOCC4)nc(N4C[C@@H](C)O[C@@H](C)C4)nc3n2)ccc1OC (stereo partly shown)
OUT: > 7.00

IN: Tell me pIC50 reported for C[C@@H]1CN(c2nc(N3CCOCC3)c3ccc(-c4ccc([N+](=O)[O-])cc4)nc3n2)C[C@H](C)O1
OUT: > 6.00

IN: Tell me pIC50 reported for Cc1ccc(-c2ccc3c(N4CCOCC4)nc(N4CCCC[C@@H]4C)nc3n2)cc1
OUT: > 6.00

IN: Tell me pIC50 reported for COc1ccc(-c2ccc3c(N4CCOCC4)nc(N4C[C@@H](C)O[C@@H](C)C4)nc3n2)cc1CNC1CCOCC1
OUT: > 7.00

IN: Tell me pIC50 reported for COc1ccc(-c2ccc3c(N4CCOCC4)nc(N4C[C@@H](C)O[C@@H](C)C4)nc3n2)cc1CNCC(C)C
OUT: > 6.00

IN: Tell me pIC50 reported for C[C@@H]1CN(c2nc(N3CCOCC3)c3ccc(-c4ccncc4)nc3n2)C[C@H](C)O1
OUT: > 6.00

IN: Tell me pIC50 reported for CCOCCCNCc1cc(-c2ccc3c(N4CCOCC4)nc(N4C[C@@H](C)O[C@@H](C)C4)nc3n2)ccc1OC
OUT: > 6.00

IN: Tell me pIC50 reported for COc1ccc(-c2ccc3c(N4CCOCC4)nc(N4C[C@@H](C)O[C@@H](C)C4)nc3n2)cc1CNCCSCc1ccc(CN(C)C)o1
OUT: > 6.00

IN: Tell me pIC50 reported for CCCCOc1ccc2c(N3CCOCC3)nc(N3C[C@@H](C)O[C@@H](C)C3)nc2n1
OUT: > 5.00

IN: Tell me pIC50 reported for C=C(C)CNc1ccc2c(N3CCOCC3)nc(N3C[C@@H](C)O[C@@H](C)C3)nc2n1
OUT: > 5.00

IN: Tell me pIC50 reported for Cc1cc([N+](=O)[O-])cc(Cl)c1Nc1ccc2c(N3CCOCC3)nc(N3C[C@@H](C)O[C@@H](C)C3)nc2n1
OUT: > 5.00

IN: Tell me pIC50 reported for C[C@@H]1CN(c2nc(N3CCOCC3)c3ccc(NC(=O)CSc4ccccc4)nc3n2)C[C@H](C)O1
OUT: > 5.00

IN: Tell me pIC50 reported for COc1ccc(-c2ccc3c(N4CCOCC4)nc(N4C[C@@H](C)O[C@@H](C)C4)nc3n2)cc1CNCCC(C)(C)C
OUT: > 6.00

IN: Tell me pIC50 reported for COc1ccc(-c2ccc3c(N4CCOCC4)nc(N4C[C@@H](C)O[C@@H](C)C4)nc3n2)cc1CN[C@H](C)c1ccc([N+](=O)[O-])cc1
OUT: > 6.00

// data source = patent US20080194546A1
